Values from patent US9023865B2

biological target: Active Human ERK2 (hERK2) (Homo sapiens (Human), UniProt P28482); assay: Active Human ERK2 (hERK2) Activity Assay (IMAP-FP); type: biochemical; conditions: phosphorylated active hERK2, 30 μM ATP; average; read-out: ERK 2 Human average IC50
Sequence (P28482 whole entry): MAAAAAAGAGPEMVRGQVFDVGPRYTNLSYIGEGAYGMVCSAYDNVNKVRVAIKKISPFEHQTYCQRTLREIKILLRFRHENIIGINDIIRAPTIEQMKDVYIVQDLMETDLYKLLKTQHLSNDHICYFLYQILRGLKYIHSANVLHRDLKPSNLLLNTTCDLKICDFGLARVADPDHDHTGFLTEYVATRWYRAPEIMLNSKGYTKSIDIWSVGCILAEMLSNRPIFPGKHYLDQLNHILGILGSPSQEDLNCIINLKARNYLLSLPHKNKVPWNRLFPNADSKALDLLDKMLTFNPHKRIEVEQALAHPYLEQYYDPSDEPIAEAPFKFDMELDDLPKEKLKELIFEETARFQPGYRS
Collected IC50 values appear next to each entry.
Give the value in nM but do not write nM after it.

In the examples that follow, each entry is paired with its recorded IC50.
C[C@@H](NC(=O)Nc1cc2[nH]nc(-c3ccnc(F)c3)c2cn1)c1ccc(Cl)cc1 [Example 57] = 1.84
Cc1cc(-c2n[nH]c3cc(NC(=O)NCC4CCC4)ncc23)ccn1 [Example 574] = 1.41
Cc1cc(-c2n[nH]c3cc(NC(=O)NCc4ccc(C#N)cc4)ncc23)ccn1 [Example 445] = 3.73
COCCN(Cc1cccnc1)C(=O)Nc1cc2[nH]nc(-c3ccnc(C)c3)c2cn1 [Example 50] = 899
Cc1cc(-c2n[nH]c3cc(NC(=O)NCC4CCO4)ncc23)ccn1 (stereo not drawn) [Example 484] = 376
Cc1cc(-c2n[nH]c3cc(NC(=O)N[C@@H]4CCc5ccc(F)cc54)ncc23)ccn1 [Example 270] = 3.73

Which IC50 value belongs to C[C@@H](NC(=O)Nc1cc2[nH]nc(C#N)c2cn1)c1ccccc1 [Example 537] ?
66.6

Query: IC50; subject: CNC(=O)c1n[nH]c2cc(NC(=O)N[C@H](C)c3ccccc3)ncc12 [Example 137]
4.54

# input compound: O=C(Nc1cc2[nH]nc(-c3ccc(F)cc3)c2cn1)NC1CCOC1 (stereo not drawn) [Example 609] ; wanted: its IC50
5.83

Which IC50 is listed for Cc1cc(-c2n[nH]c3cc(NC(=O)NC(CF)c4ccccc4)ncc23)ccn1 (stereo not drawn) [Example 354] ?
0.474

Give its IC50 value. Item: CO[C@H](C)CNC(=O)Nc1cc2[nH]nc(-c3ccnc(C)c3)c2cn1 [Example 598]
1.55

* * *

biological target: Active Human ERK2 (hERK2) (Homo sapiens (Human)); test: Active Human ERK2 (hERK2) Activity Assay (IMAP-FP); format: biochemical; conditions: phosphorylated active hERK2, 30 μM ATP; average; read-out: ERK 2 Human average IC50
Collected IC50 values appear next to each entry.
Hi! Could you send only the number? It should be in nM, unit omitted.

Cc1cc(-c2n[nH]c3cc(NC(=O)N[C@H]4CN(C)C[C@@H]4C)ncc23)ccn1 = 15.1
COc1ccc(-c2n[nH]c3cc(NC(=O)N[C@H](C)c4ccccc4)ncc23)cn1 = 0.318
Cc1cc(-c2n[nH]c3cc(NC(=O)N[C@@H]4CCOc5cc(C#N)ccc54)ncc23)ccn1 = 70.6
C[C@@H](NC(=O)Nc1cc2[nH]nc(C3CCC3)c2cn1)c1ccc(Cl)cc1 = 11.1
COc1ccc(-c2n[nH]c3cc(NC(=O)N[C@H](C)c4ccccc4)ncc23)cc1 = 0.94
Cc1cc(-c2n[nH]c3cc(NC(=O)NC(C)c4ccccc4OC(F)(F)F)ncc23)ccn1 (stereo not shown) = 2.39
C[C@@H](NC(=O)Nc1cc2[nH]nc(-c3ccc(C#N)cc3)c2cn1)c1ccc(F)cc1 = 3.28
C[C@@H](NC(=O)Nc1cc2[nH]nc(-c3ccn(C4COC4)n3)c2cn1)c1ccccc1 = 8.99

Give its IC50 value. Item: Cc1cc(-c2n[nH]c3cc(NC(=O)NC4CC(C)(C)Oc5ccccc54)ncc23)ccn1 (stereo not shown)
5.93

I'd like to know its IC50. The molecule in question is `Cc1cc(-c2n[nH]c3cc(NC(=O)NC(C)(C)c4ccccn4)ncc23)ccn1`
106

Entry Cc1cc(-c2n[nH]c3cc(NC(=O)N[C@@H](CN)c4ccccc4)ncc23)ccn1 [Example 331] has what IC50?
29.1
